assay: Efflux ratio of compound permeability in human Caco2 cells; assay type: ADME, cell-based; conditions: Caco-2
reported_property: efflux ratio

// efflux ratio lookup, compound = `O=C1Cn2c(-c3ccoc3)c(C3CCCCC3)c3ccc(cc32)C(=O)NS(=O)(=O)C/C=C/CCN1` , result: > 25

====

assay: Clearance in Sprague-Dawley rat at 2 mg/kg, iv and 10 mg/kg, po; format: ADME, organism-based; settings: in vivo
reported_property: clearance (mL/min/kg)
Unit mL/min/kg implied. Number only.

[[record]]
structure_string = "CN1CCCCN(C)S(=O)(=O)NC(=O)c2ccc3c(C4CCCCC4)c(n(C)c3c2)-c2ccccc2OCC1=O"
result_value = 128

[[record]]
structure_string = "CN1CCCCCNC(=O)Cn2c(-c3ccoc3)c(C3CCCCC3)c3ccc(cc32)C(=O)NS1(=O)=O"
result_value = 123


Kindly review the next compound as well.
// clearance lookup, compound = `CN1CCOCCN(C)S(=O)(=O)NC(=O)c2ccc3c(C4CCCCC4)c(n(C)c3c2)-c2ccccc2OCC1=O` , result: 115
